# relative infection values compiled below
# Test system: HRV1A
# TEST_SETTINGS: 0.3 µM; n=2
PROPERTY_LABEL: relative infection

INSERT INTO measurements (compound, test_result) VALUES
  ('O=C(Nc1ccc([N+](=O)[O-])cc1Cl)c1ccccc1O [TVB-1332]', 1.01),
  ('O=C(Nc1ccc([N+](=O)[O-])cc1Cl)c1cc(Cl)ccc1OCCOc1ccccc1 [TVB-1329]', 1.04),
  ('CS(=O)(=O)c1ccc(NC(=O)c2cc(Cl)ccc2O)c(Cl)c1 [TVB-1338]', 0.96),
  ('O=C(Nc1ccc([N+](=O)[O-])cc1Cl)c1cc(Cl)cc(Cl)c1O [TVB-1326]', 0.91);

----------
# Test system: HRV1A
# TEST_SUMMARY: microbe, parasite or virus in culture
# TEST_SETTINGS: Human rhinovirus sp., M-HeLa, 7 h, read-out: HRV1A infection (dsRNA), 0.31 µM
PROPERTY_LABEL: activity at 0.31 µM (%)

INSERT INTO results (compound, property_label, unit_name, test_result) VALUES
  ('CCOc1ccccc1C(=O)Nc1ccc([N+](=O)[O-])cc1Cl', 'activity at 0.31 µM', '%', 86),
  ('COc1ccccc1C(=O)Nc1ccc([N+](=O)[O-])cc1Cl', 'activity at 0.31 µM', '%', 107),
  ('COc1ccccc1C(=O)Nc1ccc(C(F)(F)F)cc1Cl', 'activity at 0.31 µM', '%', 97),
  ('O=C(Nc1ccc([N+](=O)[O-])cc1Cl)c1cc(Cl)ccc1OCCOc1ccccc1', 'activity at 0.31 µM', '%', 119),
  ('O=C(Nc1ccc(NS(=O)(=O)c2ccccc2)cc1Cl)c1cc(Cl)ccc1O', 'activity at 0.31 µM', '%', 105),
  ('O=C(Nc1ccc([N+](=O)[O-])cc1Cl)c1cc(Cl)ccc1O [niclosamide, reference compound]', 'activity at 0.31 µM', '%', 90),
  ('CCOc1ccccc1C(=O)Nc1ccc(Cl)cc1Cl', 'activity at 0.31 µM', '%', 112),
  ('CS(=O)(=O)c1ccc(NC(=O)c2cc(Cl)ccc2O)c(Cl)c1', 'activity at 0.31 µM', '%', 109),
  ('CCC(=O)Nc1ccc(Cl)c(NC(=O)c2ccccc2OC)c1', 'activity at 0.31 µM', '%', 110),
  ('COc1c(C)cccc1C(=O)Nc1ccc([N+](=O)[O-])cc1Cl', 'activity at 0.31 µM', '%', 98),
  ('COc1ccc(Br)cc1C(=O)Nc1cc([N+](=O)[O-])ccc1Cl', 'activity at 0.31 µM', '%', 107),
  ('O=C(Nc1ccc([N+](=O)[O-])cc1Cl)c1cc(Cl)cc(Cl)c1O', 'activity at 0.31 µM', '%', 88),
  ('O=C(Nc1ccc([N+](=O)[O-])cc1Cl)c1ccccc1O', 'activity at 0.31 µM', '%', 96),
  ('Nc1ccc(NC(=O)c2cc(Cl)ccc2O)c(Cl)c1', 'activity at 0.31 µM', '%', 103),
  ('COC(=O)c1ccc(Cl)c(NC(=O)c2ccccc2OC)c1', 'activity at 0.31 µM', '%', 86),
  ('COc1ccc(Cl)cc1C(=O)Nc1cc([N+](=O)[O-])ccc1Cl', 'activity at 0.31 µM', '%', 99);
